tested on: M. chelonae; experiment: MIC (CLSI broth dilution), RGM isolates; type: cell-based; conditions: Mycobacteroides chelonae, isolate 19, M. chelonae; read-out: MIC
Listed here: items and their measured MIC.
Quantity: MIC (µg/mL)

                            compound_smiles  assay_target  unit_tag  modifier  observed
0  COc1c(N2C[C@@H]3CCCN[C@@H]3C2)c(F)cc2c(=O)c(C(=O)O)cn(C3CC3)c12   M. chelonae     µg/mL         =         8
1  CN(C)c1ccc(O)c2c1C[C@H]1C[C@H]3[C@H](N(C)C)C(O)=C(C(N)=O)C(=O)[C@@]3(O)C(O)=C1C2=O   M. chelonae     µg/mL         >         8
2  CC(=O)NC[C@H]1CN(c2ccc(N3CCOCC3)c(F)c2)C(=O)O1   M. chelonae     µg/mL         =         8

---

test: Intra-pulmonary steady-state concentrations (plasma, ELF, alveolar cells) after multiple IV doses in healthy adult subjects; assay type: in vivo, human; details: human, in vivo, Plasma concentration (mean ± SD)
Quantity: concentration at 0.5 h (µg/mL)

Compound	Observed
CN(C)c1cc(CNCC(C)(C)C)c(O)c2c1C[C@H]1C[C@H]3C(N(C)C)C(O)=C(C(N)=O)C(=O)[C@@]3(O)C(O)=C1C2=O (stereo partly shown) [Omadacycline]	1.8

---

assay: Intra-pulmonary steady-state concentrations (plasma, ELF, alveolar cells) after multiple IV doses in healthy adult subjects; type: in vivo, human; conditions: human, in vivo, Plasma concentration (mean ± SD)
Quantity: concentration at 12 h (ng/mL)

In [3]: df
Out[3]:
                                   compound               quantity  observed
0  CN(C)c1cc(CNCC(C)(C)C)c(O)c2c1C[C@H]1C[C@H]3C(N(C)C)C(O)=C(C(N)=O)C(=O)[C@@]3(O)C(O)=C1C2=O (stereo partly shown)  concentration at 12 h       420

---

assay: Intra-pulmonary steady-state concentrations (plasma, ELF, alveolar cells) after multiple IV doses in healthy adult subjects; format: in vivo, human; conditions: human, in vivo, Ratio of Omadacycline Concentrations in Alveolar Cells to Plasma (Mean, SD)
Quantity: Kp at 8 h

                                   compound   quantity  observed
0  CN(C)c1cc(CNCC(C)(C)C)c(O)c2c1C[C@H]1C[C@H]3C(N(C)C)C(O)=C(C(N)=O)C(=O)[C@@]3(O)C(O)=C1C2=O (stereo partly shown)  Kp at 8 h      23.1

---

assay: Intra-pulmonary steady-state concentrations (plasma, ELF, alveolar cells) after multiple IV doses in healthy adult subjects; type: in vivo, human; settings: human, in vivo, Ratio of Omadacycline Concentrations in Epithelial Lining Fluid to Plasma (Mean, SD)

Compound	Kp at 0.5 h
CN(C)c1cc(CNCC(C)(C)C)c(O)c2c1C[C@H]1C[C@H]3C(N(C)C)C(O)=C(C(N)=O)C(=O)[C@@]3(O)C(O)=C1C2=O (stereo partly shown) [Omadacycline]	0.95

---

assay: Intra-pulmonary steady-state concentrations (plasma, ELF, alveolar cells) after multiple IV doses in healthy adult subjects; assay type: in vivo, human; settings: human, in vivo, Plasma concentration (mean ± SD)
Quantity: concentration at 4 h (ng/mL)

>>> df
                                   compound              quantity  unit_tag  observed
0  CN(C)c1cc(CNCC(C)(C)C)c(O)c2c1C[C@H]1C[C@H]3C(N(C)C)C(O)=C(C(N)=O)C(=O)[C@@]3(O)C(O)=C1C2=O (stereo partly shown)  concentration at 4 h     ng/mL       590

---

Listed here: items and their measured MIC.
system: M. abscessus complex; assay: MIC (CLSI broth dilution), RGM isolates; assay type: cell-based; details: Mycobacteroides abscessus, isolate 3, M. abscessus complex, erm gene type MAB30; read-out: MIC
Quantity: MIC (µg/mL)

                            compound_smiles  unit_tag  modifier  observed
0  CN(C)c1ccc(O)c2c1C[C@H]1C[C@H]3[C@H](N(C)C)C(O)=C(C(N)=O)C(=O)[C@@]3(O)C(O)=C1C2=O     µg/mL         >         8
1  CN(C)c1cc(CNCC(C)(C)C)c(O)c2c1C[C@H]1C[C@H]3[C@H](N(C)C)C(O)=C(C(N)=O)C(=O)[C@@]3(O)C(O)=C1C2=O     µg/mL         =      0.25
2  COc1c(N2C[C@@H]3CCCN[C@@H]3C2)c(F)cc2c(=O)c(C(=O)O)cn(C3CC3)c12     µg/mL         =        16
3  CC(=O)NC[C@H]1CN(c2ccc(N3CCOCC3)c(F)c2)C(=O)O1     µg/mL         =        32
4  CO[C@@]1(NC(=O)Cc2cccs2)C(=O)N2C(C(=O)O)=C(COC(N)=O)CS[C@@H]21     µg/mL         =        32

---

assay: Intra-pulmonary steady-state concentrations (plasma, ELF, alveolar cells) after multiple IV doses in healthy adult subjects; assay type: in vivo, human; settings: human, in vivo, AUCmean, Plasma
Quantity: AUC

Compound	Observed
CN(C)c1cc(CNCC(C)(C)C)c(O)c2c1C[C@H]1C[C@H]3C(N(C)C)C(O)=C(C(N)=O)C(=O)[C@@]3(O)C(O)=C1C2=O (stereo partly shown) [Omadacycline]	11700 ng·h/mL

---

Listed here: items and their measured MIC.
tested on: M. abscessus complex; experiment: MIC (CLSI broth dilution), RGM isolates; type: cell-based; settings: Mycobacteroides abscessus, isolate 2, M. abscessus complex, erm gene type MAB30; read-out: MIC
Quantity: MIC (µg/mL)

>>> print(df.to_string())
                            compound_smiles  observed
0  CN(C)c1ccc(O)c2c1C[C@H]1C[C@H]3[C@H](N(C)C)C(O)=C(C(N)=O)C(=O)[C@@]3(O)C(O)=C1C2=O         8
1  CN(C)c1cc(CNCC(C)(C)C)c(O)c2c1C[C@H]1C[C@H]3[C@H](N(C)C)C(O)=C(C(N)=O)C(=O)[C@@]3(O)C(O)=C1C2=O      0.25
2  CO[C@@]1(NC(=O)Cc2cccs2)C(=O)N2C(C(=O)O)=C(COC(N)=O)CS[C@@H]21        32
3  COc1c(N2C[C@@H]3CCCN[C@@H]3C2)c(F)cc2c(=O)c(C(=O)O)cn(C3CC3)c12         8
4  CC(=O)NC[C@H]1CN(c2ccc(N3CCOCC3)c(F)c2)C(=O)O1        16

---

test: Intra-pulmonary steady-state concentrations (plasma, ELF, alveolar cells) after multiple IV doses in healthy adult subjects; format: in vivo, human; details: human, in vivo, Ratio of Omadacycline Concentrations in Alveolar Cells to Plasma (Mean, SD)
Quantity: Kp at 24 h

In [3]: df
Out[3]:
                                   molecule    quantity  observed
0  CN(C)c1cc(CNCC(C)(C)C)c(O)c2c1C[C@H]1C[C@H]3C(N(C)C)C(O)=C(C(N)=O)C(=O)[C@@]3(O)C(O)=C1C2=O (stereo partly shown)  Kp at 24 h      40.3

---

assay: Intra-pulmonary steady-state concentrations (plasma, ELF, alveolar cells) after multiple IV doses in healthy adult subjects; type: in vivo, human; conditions: human, in vivo, AUCmedian, Plasma
Quantity: AUC

Compound	Observed
CN(C)c1cc(CNCC(C)(C)C)c(O)c2c1C[C@H]1C[C@H]3C(N(C)C)C(O)=C(C(N)=O)C(=O)[C@@]3(O)C(O)=C1C2=O (stereo partly shown) [Omadacycline]	11800 ng·h/mL

---

experiment: Intra-pulmonary steady-state concentrations (plasma, ELF, alveolar cells) after multiple IV doses in healthy adult subjects; assay type: in vivo, human; details: human, in vivo; model-computed; read-out: Penetration Ratio: total-drug ELF AUC72-84 to free-drug plasma AUC72-84 (Median)

Molecule	Kp
CN(C)c1cc(NC(=O)CNC(C)(C)C)c(O)c2c1C[C@H]1C[C@H]3[C@H](N(C)C)C(O)=C(C(N)=O)C(=O)[C@@]3(O)C(O)=C1C2=O [Tigecycline, tigecycline]	1.87

---

test system: M. fortuitum group; experiment: MIC (CLSI broth dilution), RGM isolates; assay type: cell-based; settings: Mycolicibacterium fortuitum, isolate 27, M. fortuitum group, M. porcinum; read-out: MIC
Listed here: items and their measured MIC.
Quantity: MIC

>>> print(df.to_string())
                            compound_smiles  quantity    observed
0  CO[C@@]1(NC(=O)Cc2cccs2)C(=O)N2C(C(=O)O)=C(COC(N)=O)CS[C@@H]21       MIC    32 µg/mL
1  CN(C)c1ccc(O)c2c1C[C@H]1C[C@H]3[C@H](N(C)C)C(O)=C(C(N)=O)C(=O)[C@@]3(O)C(O)=C1C2=O       MIC     4 µg/mL
2  CC(=O)NC[C@H]1CN(c2ccc(N3CCOCC3)c(F)c2)C(=O)O1       MIC     4 µg/mL
3  CN(C)c1cc(CNCC(C)(C)C)c(O)c2c1C[C@H]1C[C@H]3[C@H](N(C)C)C(O)=C(C(N)=O)C(=O)[C@@]3(O)C(O)=C1C2=O       MIC  0.12 µg/mL
4  COc1c(N2C[C@@H]3CCCN[C@@H]3C2)c(F)cc2c(=O)c(C(=O)O)cn(C3CC3)c12       MIC  0.12 µg/mL
